Measured TGI, listed per entry.
# Test system: SK-MEL-28 melanoma
# procedureSummary: NCI tumour cell line growth inhibition, 48 h
measuredEndpoint: TGI

compound=Clc1cc(N/N=C(\c2ccccc2)c2ccccn2)ncn1 assayedsystem="SK-MEL-28 melanoma" measuredendpoint=TGI reportedresult="> 100 µM"
compound=CCCCCCCCCCCCCCCCCc1nc(Cl)nc(Cl)c1Cl assayedsystem="SK-MEL-28 melanoma" measuredendpoint=TGI reportedresult="> 100 µM"
compound=O/N=C\c1c2c(cc3c1CCC3)CCC2 assayedsystem="SK-MEL-28 melanoma" measuredendpoint=TGI reportedresult="> 100 µM"
compound=O=C(/C=C/c1ccc(-c2ccccc2)cc1)NCc1ccc(C(=O)NCCc2ccccc2)cc1 assayedsystem="SK-MEL-28 melanoma" measuredendpoint=TGI reportedresult="> 100 µM"
compound=O=c1cc(NNc2cccc3ccccc23)[nH]c(=O)[nH]1 assayedsystem="SK-MEL-28 melanoma" measuredendpoint=TGI reportedresult="33.3 µM"
compound="CC(C)(O)C1COC2=C1C(=O)c1ccccc1C2=O (stereo unspecified)" assayedsystem="SK-MEL-28 melanoma" measuredendpoint=TGI reportedresult="46 µM"
compound=O=P(CN1CCOCC1)(c1ccccc1)c1ccccc1 assayedsystem="SK-MEL-28 melanoma" measuredendpoint=TGI reportedresult="> 100 µM"
compound="Nc1nc(SCc2ccccc2Cl)c2ncn(C3OC(CO)C(O)C3O)c2n1 (stereo unspecified)" assayedsystem="SK-MEL-28 melanoma" measuredendpoint=TGI reportedresult="> 100 µM"
compound=Cc1cccc2c(=O)c3c(O)cc(O)cc3n(C)c12 assayedsystem="SK-MEL-28 melanoma" measuredendpoint=TGI reportedresult="> 100 µM"
compound=[CH3][Sn]([CH3])([CH3])[S]C(=S)N1CCOCC1 assayedsystem="SK-MEL-28 melanoma" measuredendpoint=TGI reportedresult="33.6 µM"
compound=Cc1ccc(/C=c2\cc3oc(=O)c4cccc(c4-3)c2=O)cc1 assayedsystem="SK-MEL-28 melanoma" measuredendpoint=TGI reportedresult="> 100 µM"
compound="C=C1C(=O)OC2CC(C)C(/C=C/C(C)=O)=CCC12 (stereo unspecified)" assayedsystem="SK-MEL-28 melanoma" measuredendpoint=TGI reportedresult="> 100 µM"
compound=O=C(NNC(=O)c1ccco1)c1ccco1 assayedsystem="SK-MEL-28 melanoma" measuredendpoint=TGI reportedresult="> 100 µM"
compound=C[C@]12CC[C@H]3[C@@H](CC=C4C[C@@H](O)CC[C@@]43C)[C@@H]1C/C(=C\c1cccnc1)[C@@H]2O assayedsystem="SK-MEL-28 melanoma" measuredendpoint=TGI reportedresult="> 100 µM"
compound="NC(CCC(=O)c1ccccn1)C(=O)O (stereo unspecified)" assayedsystem="SK-MEL-28 melanoma" measuredendpoint=TGI reportedresult="> 100 µM"
compound=O=C(O)CNc1ccc2c(c1)Cc1cc(Br)ccc1-2 assayedsystem="SK-MEL-28 melanoma" measuredendpoint=TGI reportedresult="> 100 µM"
compound="CCOc1ccc(NC(=O)CC2SC(=Nc3ccc(C)cc3)NC2=O)cc1 (stereo unspecified)" assayedsystem="SK-MEL-28 melanoma" measuredendpoint=TGI reportedresult="> 100 µM"
compound=S=c1ssnc1-c1cc2ccccc2o1 assayedsystem="SK-MEL-28 melanoma" measuredendpoint=TGI reportedresult="30 µM"
compound=N#C/C(=C\c1ccc(O)cc1)C(N)=O assayedsystem="SK-MEL-28 melanoma" measuredendpoint=TGI reportedresult="> 100 µM"
compound=O=C(N/C(=C\c1ccc([N+](=O)[O-])cc1)c1nc2ccccc2s1)c1ccccc1 assayedsystem="SK-MEL-28 melanoma" measuredendpoint=TGI reportedresult="> 100 µM"
compound="O=C1/C(=C/c2ccc(Cl)cc2)CCC1CNc1ccc(Cl)cc1 (stereo unspecified)" assayedsystem="SK-MEL-28 melanoma" measuredendpoint=TGI reportedresult="35.9 µM"
compound="CN(C)C(=O)C(F)(F)C(c1ccccc1)C1C(=O)N(C)C(=O)N(C)C1=O (stereo unspecified)" assayedsystem="SK-MEL-28 melanoma" measuredendpoint=TGI reportedresult="> 100 µM"
compound=COc1ccc(OC)c2c(C(C)=O)cccc12 assayedsystem="SK-MEL-28 melanoma" measuredendpoint=TGI reportedresult="> 100 µM"
compound=Nc1ccc(CC[C@H]2CCC/C=C/[C@@H]3C[C@H](O)C[C@H]3[C@H](O)/C=C/C(=O)O2)cc1 assayedsystem="SK-MEL-28 melanoma" measuredendpoint=TGI reportedresult="1.43 µM"
compound=COc1cc2c(c(OC)c1OC)C(=O)c1c(O)cc(C)c(OC)c1C2=O assayedsystem="SK-MEL-28 melanoma" measuredendpoint=TGI reportedresult="> 100 µM"
compound="C=C1OC2OC(C)C(NC(=O)OCC(Cl)(Cl)Cl)C(OC(C)=O)C2O1 (stereo unspecified)" assayedsystem="SK-MEL-28 melanoma" measuredendpoint=TGI reportedresult="> 100 µM"

* * *

Measured TGI, listed per entry.
# System: HS 578T breast
# procedureSummary: NCI tumour cell line growth inhibition, 48 h
measuredEndpoint: TGI

compound=CCOC(=O)c1ccc(N(CCOS(C)(=O)=O)CCOS(C)(=O)=O)cc1 reportedresult="> 100 µM"
compound=Cn1c(=O)c(-c2ccccc2Cl)cc2cnc(NC3CCOCC3)nc21 reportedresult="> 25 µM"
compound=O=C1CCC(c2ccccc2)=NN1c1nc2ccccc2s1 reportedresult="> 100 µM"
compound=c1ccc(C(Oc2noc3ccccc23)c2ccccc2)cc1 reportedresult="> 100 µM"
compound="CCOC(=O)C(C)c1nc2cc(F)c(F)cc2[nH]c1=O (centres undefined)" reportedresult="> 100 µM"
compound="CN1C2C=CC(=O)C1C1C(=O)N(c3ccccc3)C(=O)C12 (centres undefined)" reportedresult="22.3 µM"
compound=CCc1ccc2c(c1)C(=O)c1c-2n(CCCN)c(=O)c2cc(OC)c(OC)cc12 reportedresult="3.78 µM"
compound=CCOC(=O)Cc1c(C(=O)OCC)[n+](=O)c2cc(Cl)c(Cl)cc2n1[O-] reportedresult="6.46 µM"
compound=O=c1c(I)c[nH]cc1I reportedresult="> 100 µM"
compound=COc1cccc(/C=C2\N=C(c3ccccc3)OC2=O)c1 reportedresult="> 100 µM"
compound="C=C1C(=O)OC2CC(C)C(/C=C/C(C)=O)=CCC12 (centres undefined)" reportedresult="> 100 µM"
compound=CNC(=O)[C@H](Cc1ccccc1)NC(=O)N(CCC#N)CCN(C(=O)N[C@@H](Cc1ccccc1)C(=O)OC)c1ccccc1 reportedresult="> 100 µM"
compound=CC(C)=CCC[C@@H](C)C1=C(O)C(N[C@H](C)c2ccccc2)=C(C)C(=O)C1=O reportedresult="36.7 µM"
compound=Nc1nc(Sc2ccc([N+](=O)[O-])c3nonc23)c2[nH]cnc2n1 reportedresult="62.5 µM"

* * *

Measured TGI, listed per entry.
# Tested on: RXF 393 renal
# procedureSummary: NCI tumour cell line growth inhibition, 48 h
measuredEndpoint: TGI

compound=CCSC[C@@H]1C[C@](O)(c2ccccc2)[C@@H](c2ccccc2)O1 reportedresult="> 100 µM"
compound=COc1ccc(OC)c2c(C(C)=O)cccc12 reportedresult="> 100 µM"
compound="CC1OC(OC2C(O)CC(OC3C(O)CC(OC4CCC5(C)C(CCC6C5CCC5(C)C(C7=CC(=O)OC7)C(O)CC65O)C4)OC3C)OC2C)CC(O)C1O (configuration not stated)" reportedresult="0.299 µM"
compound="CCOP1(=O)CC(C)=C(Cl)C(OC)C1 (configuration not stated)" reportedresult="> 100 µM"
compound="COC(=O)C(=O)C(C(=O)C(=O)Nc1ccc([N+](=O)[O-])cc1)c1nc2ccccc2[nH]c1=O (configuration not stated)" reportedresult="> 100 µM"
compound=N=C(N)c1ccc2oc3ccc(C(=N)N)cc3c(=O)c2c1 reportedresult="> 100 µM"
compound=CCCOC(=O)c1cc(O)c(O)c(O)c1 reportedresult="> 100 µM"
compound=Clc1ccc(-c2cn3c(nc4ccccc43)c(-c3ccccc3)n2)cc1 reportedresult="> 49.2 µM"
compound=Oc1c(Br)cc2c(c1Br)-c1c(c(O)c3c4c1=NCCC=4C=N3)NCC2 reportedresult="28.7 µM"
compound="CC(=O)OCC1OC(OCCCOP(=O)(OCCC#N)OCC2OC(n3cnc4c(N)ncnc43)C(OC(=O)c3ccccc3)C2OC(=O)c2ccccc2)C(OC(C)=O)C(OC(C)=O)C1OC(C)=O (configuration not stated)" reportedresult="> 100 µM"
compound="C=CCC(N[C@@H](CO)c1ccccc1)c1ccc2ccccc2n1 (some centres not stated)" reportedresult="> 100 µM"
compound=CCN(CC)c1ccc(/C=N/NC(=O)Cc2ccc(Nc3ccnc(C(F)(F)F)c3)cc2)c(O)c1 reportedresult="98.5 µM"
compound=Nc1nc(N)c2nc(CN(C=O)c3ccc(C(=O)O)cc3)cnc2n1 reportedresult="> 100 µM"
compound=CC(C)c1cc(=O)[nH]c2cc(N)ccc12 reportedresult="> 100 µM"
compound=Cc1c2cc[n+](Cc3ccc(I)cc3)cc2c(C)c2c1[nH]c1ccccc12 reportedresult="> 25 µM"
compound=CN(CCN)[C@H](CSSC[C@@H](c1ccccc1O)N(C)CCN)c1ccccc1O reportedresult="43.7 µM"
compound=COc1ccc(/C=C/C(=N\NC(=O)c2ccccc2)c2sc(Nc3ccc([N+](=O)[O-])cc3)nc2C)cc1OC reportedresult="52.5 µM"
